- Tested on: MS2 coat protein
- PROCEDURE DETAILS: apparent KD of MS2 coat protein; designed switch direction (-1 OFF switch, 1 ON switch): -1; higher = weaker reporter binding
- TEST CONTEXT: input ligand: FMN 200 uM
Assign class by apparent KD of MS2 coat protein: not lower than 30 nM means class 1; lower than 30 nM means class 0.

Query string: Answer whether apparent KD of MS2 coat protein of GGUUGGCGAGGAUAUACAUGAGGAUCACCCAUGUGGUCCUGUGGCUGAUCUAGCCUAUGUAGAAGGCGCAAAUC [salish99_ex3_r4_013] (Eterna round: R97, puzzle: Exclusion 3) is greater than or equal to 30 nM.
Result string: class 1

Query string: Answer whether apparent KD of MS2 coat protein of UUUAAUGGAAUUAAGAUCACAUGAGGAUCACCCAUGUAUAUAUAGGAUAUCAGCUCGUUUAGAGCUGAGAAGGAUAUAUACAUA [ExNG3/6-B2] (Eterna round: R96, puzzle: Exclusion NG 3) is greater than or equal to 30 nM.
Result string: class 1

Query string: Answer whether apparent KD of MS2 coat protein of GUUGUUUAUGUAGGAUAUGCCUGGCGUGCCUUUGCAGAAGGACAUGAGGAUCACCCAUGUAUUGCGGUCUGCGUUCAGAUCGCC [salish99_ExNG1_r4_041] (Eterna round: R96, puzzle: Exclusion NG 1) is greater than or equal to 30 nM.
Result string: class 1

Query string: Answer whether apparent KD of MS2 coat protein of CCGGUUGGCGCAGGAUAUACAUGAGGAUCACCCAUGUUCGUGAGGAUCACCCAUGAGUUUUUGUUGUAGAAGGGUGGCCCGGCC (Eterna round: R96, puzzle: Exclusion NG 2) is greater than or equal to 30 nM.
Result string: class 0

Query string: Answer whether apparent KD of MS2 coat protein of UACACUGCAUGAGGAUCAAACAUGAGGAUCACCCAUGUAUAGCAAGCUUUUUGCUCGUCUUAUAAUUAUGUAGUGUA [Electric Eye 12 - Jieux - Sensor, turn-off variant 1] (Eterna round: R97, puzzle: Sensor, turn-off variant 1) is greater than or equal to 30 nM.
Result string: class 0

* * *

- Tested on: MS2 coat protein
- PROCEDURE DETAILS: apparent KD of MS2 coat protein; designed switch direction (-1 OFF switch, 1 ON switch): -1; higher = weaker reporter binding
- TEST CONTEXT: input ligand: microRNA oligo, concentration not stated
TEST READOUT: apparent KD of MS2 coat protein (nM)
Write it as a number; the unit nM goes unstated.

Query string: # input sequence: CUGCUGGAGCUUUGCUUUGGUCGUACAUGAGGAUCACCCAUGUAGGAUAUGGUAAAAUUUGCUUGCUAGAAGGAUAGAGUGGUC [salish99_ExNG3_r04_612] (Eterna round: R96, puzzle: Exclusion NG 3) ; wanted: its apparent KD of MS2 coat protein
Result string: 34.3

Query string: # input sequence: CACCUGAAUACAGGAUAUCUUACAUGAGGAUCACCCAUGUAAUAAAUGAGAAUUUCGAAUGUAAUAGAGAAGGGUAGAUAAGGC [Ostracism 87 - Jieux - Exclusion NG 2] (Eterna round: R96, puzzle: Exclusion NG 2) ; wanted: its apparent KD of MS2 coat protein
Result string: 26.5

Query string: # input sequence: GGUUAGAUGGUAGGAUAUCCAUAUCGAGUGACCCUUUCAUAACAUGAGGAUCACCCAUGUCGGUGGGAGAAGGGCCGUACGGCG [salish99_ExNG02_R04_011] (Eterna round: R96, puzzle: Exclusion NG 2) ; wanted: its apparent KD of MS2 coat protein
Result string: 38.3

Query string: # input sequence: AGCUGUGGCCGAGGAUAUACACAUGAGGAUCACCCAUGUAGGCGCGGAAACGCGCUAAAAGGGUUGUAGAAGGCGGUCUCAGCA [Eli eng2 - 054] (Eterna round: R96, puzzle: Exclusion NG 2) ; wanted: its apparent KD of MS2 coat protein
Result string: 165

Query string: # input sequence: AGGUCCUUCUGGACACAUGAGGAUCACCCAUGUGCGGUCAGCGAGGAUAUCGGUCUAUAAUGUGACGAGAAGGCGCGGACCGAU [Ex NG3 #60] (Eterna round: R96, puzzle: Exclusion NG 3) ; wanted: its apparent KD of MS2 coat protein
Result string: 15.3

Query string: # input sequence: AAGAAGAAGUAAGGAUAUGAAGAUCUGGUGGUGACAUGAGGAUCACCCAUGUGAAAACGAUGAGAUCAGAAGGUACAAGAAGAA [AK ExNG2-3.4] (Eterna round: R96, puzzle: Exclusion NG 2) ; wanted: its apparent KD of MS2 coat protein
Result string: 65.3

Query string: # input sequence: UCACGGGACUAAGGAUAUACAUGAACCAUUUUUGUAGAAGGUAGAAUGUUUGAUCAUAAACUAAACAUGAGGAUCACCCAUGUU [JR_ExcNG1_Sub090] (Eterna round: R96, puzzle: Exclusion NG 1) ; wanted: its apparent KD of MS2 coat protein
Result string: 16.9

Query string: # input sequence: AGGUGCUUCUGGAGACAUGAGGAUCACCCAUGUCGAGUCAGCGAGGAUAUCGGUAAGGCAUGUGAUGAGAAGGCGCAGACCGAU [Ex NG3 #51] (Eterna round: R96, puzzle: Exclusion NG 3) ; wanted: its apparent KD of MS2 coat protein
Result string: 20.3

Query string: # input sequence: AAUUAUUAUUGAGGAUAUCGUAUUGAAACAAUACGAGAAGGCGGAAUAAACAUGAGGAUCACCCAUGUGAGCCUGAUGCUUGUG [Ex NG1 #42] (Eterna round: R96, puzzle: Exclusion NG 1) ; wanted: its apparent KD of MS2 coat protein
Result string: 13.4
